system: MOLT-4; assay: NCI tumour cell line growth inhibition, 48 h
Activity calls are given as the source filed them. Cut-off read from the data, not from the text of the source: active = GI50 up to about 1.1 µM and inactive = higher.
Items are presented alongside their recorded GI50.
quantity-name: GI50

molecule=Cc1c(/N=C\c2ccc(N(CCC#N)CCC#N)cc2)c(=O)n(-c2ccccc2)n1C study_system=MOLT-4 result="> 100 µM (inactive)"
molecule=CC(C)N(/C(F)=N\C(=O)Nc1ccccc1C(F)(F)F)C(C)C study_system=MOLT-4 result="> 10 µM (inactive)"
molecule="Nc1cc2c(C3OC(CO)C(O)C3O)n[nH]c2c(=S)[nH]1 (stereo not given)" study_system=MOLT-4 result="> 100 µM (inactive)"
molecule=O=c1[nH]c(Nc2cccc(C(F)(F)F)c2)nc2[nH]cnc12 study_system=MOLT-4 result="> 100 µM (inactive)"
molecule=O=C(/C=C/c1ccccc1O)c1ccccc1O study_system=MOLT-4 result="18.7 µM (inactive)"
molecule=COC(=O)C[C@H]1CCC2(OCCO2)[C@]1(C)C(=O)OC study_system=MOLT-4 result="> 100 µM (inactive)"
molecule="COc1cc(-c2cc(=O)c3c(OC)c(OC)c(OC)c(OC)c3o2)cc(OC)c1OC [HEPATAMETHOXYFLAVONE]" study_system=MOLT-4 result="24.9 µM (inactive)"
molecule="O=c1[nH]cnc2c1ncn2C1SC(CO)C(O)C1O (stereo not given)" study_system=MOLT-4 result="> 100 µM (inactive)"
molecule=Cc1ccc(/N=N/C(=N/NC(=O)c2ccccc2)c2ccc(N(CCC#N)CCC#N)cc2C)cc1 study_system=MOLT-4 result="61.1 µM (inactive)"
molecule="C=CCCCCCCCCCCCC1CCC(CC)N1 (stereo not given)" study_system=MOLT-4 result="4.06 µM (inactive)"

----------
tested on: RPMI-8226; assay: NCI tumour cell line growth inhibition, 48 h
Calls of active or inactive are those of the source. No stated cut-off is given here; in the data, active = GI50 up to about 1.1 µM and inactive = higher.
Outcome codes: yes (1) = active, no (0) = inactive

molecule=COc1ccc(CCNC(=O)CCCCCO)cc1OC assigned_label="no (0)"
molecule=COc1cccc(Nc2nc3c([nH]2)c(=O)n(C)c(=O)n3C)c1 assigned_label="no (0)"
molecule=COc1ccc(NC(=S)N/N=C(\C)c2nc3cccnc3[nH]2)cc1 assigned_label="no (0)"
molecule=O=C(/C=C/c1ccccc1Cl)c1cccc2ccccc12 assigned_label="no (0)"
molecule="CC12CC(=O)Nc3ccccc3N1C(c1ccccc1)=NO2 (centres undefined)" assigned_label="no (0)"
molecule="CC1(C)OC2C(CCP(=O)(O)O)OC(c3nc(C(N)=O)cs3)C2O1 (centres undefined)" assigned_label="no (0)"
molecule="C=CCCCCCCCCCCCC1CCC(CC)N1 (centres undefined)" assigned_label="no (0)"
molecule="CC1=NC(C(=O)O)Cc2c1[nH]c1ccccc21 (centres undefined)" assigned_label="no (0)"
molecule=CNC(=S)/C(=N\Nc1[nH]cnc1C(N)=O)C(N)=S assigned_label="no (0)"
molecule=O=C1/C(=C/c2ccccc2Cl)COc2ccc(Br)cc21 assigned_label="no (0)"
molecule=Cn1c2c(c3ccccc31)CCN(CCCCN1CCCCC1)C2=O assigned_label="no (0)"
molecule=N#CC(C#N)=CNC(=S)c1ccncc1 assigned_label="no (0)"
molecule="C[C@]12CC[C@H](OC(=O)Cc3ccc(N(CCCl)CCCl)cc3)CC1CC[C@@H]1C2CC[C@]2(C)NC(=O)CCC12 (some centres undefined)" assigned_label="no (0)"
molecule="COC1C=COC2(C)Oc3c(C)c(O)c4c(c3C2=O)/C(=N/C2CCC(O)OC2C)C=C(NC(=O)/C(C)=C\\C(=O)C2CC2C(O)C(C)C(O)C(C)C(OC(C)=O)C1C)C4=O (centres undefined)" assigned_label="yes (1)"
molecule="O=C1CC2CCCC23CC2(CCN13)OCCO2 (centres undefined)" assigned_label="no (0)"
molecule="CC(=O)OCC1OC(n2cc(I)c(=O)[nH]c2=O)C(OC(C)=O)C(OC(C)=O)C1OC(C)=O (centres undefined)" assigned_label="no (0)"
molecule="CCOC(=O)C(SCCO)C(C(=O)OCC)n1cc(C)c(=O)[nH]c1=O (centres undefined)" assigned_label="no (0)"
molecule="CC(NC(=O)Cc1ccccc1)NC(=O)C(C)C(=O)NCc1ccccc1 (centres undefined)" assigned_label="no (0)"
molecule=CC(C)(C)OC(=O)n1c(-c2ccccc2F)cc(=O)c2cc3c(cc21)OCO3 assigned_label="yes (1)"
